# Method notes: Cytotoxicity against MRC-5 cells
# Assay type: cell-based, human
# Condition info: human, MRC-5 cells (normal human embryonic lung fibroblasts)
Endpoint label: IC50

Sample records with IC50:
[[record]]
compound = "C[C@@H]1CC[C@H]2[C@@H](C)C(=O)O[C@@H]3O[C@@]4(C)CC[C@@H]1[C@]32OO4 [Artemisinin, reference compound]"
observed_value = "> 14.1 µg/mL"

[[record]]
compound = "CNCCc1cc(Br)c(OCCCNC(=O)N(C)CCc2cc(Br)c(OCCCNC(=O)C3=NO[C@]4(CC(Br)=C(OC)C(Br)=CO4)[C@@H]3O)c(Br)c2)c(Br)c1"
observed_value = "16 µg/mL"


Now for the compound whose IC50 we want.
The recorded IC50 for CNCCc1cc(Br)c(OCCCNC(=O)N(C)CCc2cc(Br)c(OCCCNC(=O)N(C)CCc3cc(Br)c(OCCCNC(=O)C4=NO[C@]5(CC(Br)=C(OC)C(Br)=CO5)[C@@H]4O)c(Br)c3)c(Br)c2)c(Br)c1 is > 50 µg/mL

###

# Method notes: Cytotoxicity against MRC-5 cells
# Type: cell-based, human
# Condition info: normal human embryonic lung fibroblast
Endpoint label: IC50

Entry CCN(CC)CCCC(C)Nc1ccnc2cc(Cl)ccc12 (stereo not shown) [Chloroquine, reference compound] ; IC50 = > 25.8 µg/mL
